Target: UniProt P21397
Assay: Inhibition of MAO-A (unknown origin) preincubated for 20 mins using 5-hydroxytryptamine as substrate followed by substrate addition and measured after 60 mins
Each entry below lists one item and its recorded pIC50 value.
Scale: pIC50 equals -log10([C]), with [C] in mol/L.

Below are worked cases with known answers.
CCN(CC)S(=O)(=O)c1ccc([C@H]2C[C@@H]2NC(=O)OC(C)(C)C)cc1	6.15
CCN(CC)S(=O)(=O)c1ccc([C@H]2C[C@@H]2N)cc1	6.09

Note down pIC50 recorded for "CCN(CC)S(=O)(=O)c1ccc([C@H]2C[C@@H]2NCc2ccccc2)cc1" 6.28

* * *

pKi for assorted molecules
Biological target: Amine oxidase [flavin-containing] A (Homo sapiens)
Sequence (P21397 whole entry): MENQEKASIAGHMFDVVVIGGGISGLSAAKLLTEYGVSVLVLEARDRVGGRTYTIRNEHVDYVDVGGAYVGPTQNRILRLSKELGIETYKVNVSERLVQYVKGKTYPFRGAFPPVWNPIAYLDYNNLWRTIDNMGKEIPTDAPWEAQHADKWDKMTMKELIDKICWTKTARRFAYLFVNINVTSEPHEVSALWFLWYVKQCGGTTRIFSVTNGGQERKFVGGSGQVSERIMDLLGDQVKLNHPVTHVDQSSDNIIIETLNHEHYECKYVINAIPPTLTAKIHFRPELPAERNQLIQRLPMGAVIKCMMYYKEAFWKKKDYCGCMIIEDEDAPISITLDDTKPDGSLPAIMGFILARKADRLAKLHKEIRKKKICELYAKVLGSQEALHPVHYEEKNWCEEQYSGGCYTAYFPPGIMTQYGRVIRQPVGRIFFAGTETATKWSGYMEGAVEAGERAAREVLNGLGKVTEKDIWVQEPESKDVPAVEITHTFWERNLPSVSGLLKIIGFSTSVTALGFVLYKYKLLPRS
Test: Inhibition of human MAO-A expressed in expressed in baculovirus infected BTI insect cells using tyramine as substrate by peroxidase-coupled method
Note: pKi values are expressed as the negative base-10 logarithm of concentration in M.

NC1CC1c1c(F)c(F)c(F)c(F)c1F (configuration not stated)	3.57

Shifting focus to the molecule that follows.
Note down pKi recorded for NC1CC1c1cccc(F)c1OCc1ccccc1 (configuration not stated) 4.19
